Biological target: human 11β-HSD1 (Homo sapiens)
Construct: 100 ug/ml human/mouse liver microsomes; from tissue; host or cells: human liver microsomes
Assay: Enzyme activity analysis on human 11β-HSD1 (HTRF cortisol, liver microsomes)
Format: biochemical
Settings: first value of cell

{"compound": "CC(C)(NS(=O)(=O)c1ccc(Cl)c([N+](=O)[O-])c1)C(=O)NC1C2CC3CC(C2)CC1C3 (stereo not drawn)", "IC50": "> 2.5 µM"}
{"compound": "CC(C)NC(=O)C12CC3CC(C1)C(NC(=O)C(C)(C)NS(=O)(=O)c1ccccc1Br)C(C3)C2 (stereo not drawn)", "IC50": "> 2.5 µM"}
{"compound": "CC(C)(NS(=O)(=O)c1ccc(C(F)(F)F)cc1)C(=O)NC1C2CC3CC(C2)CC1C3 (stereo not drawn)", "IC50": "> 2.5 µM"}

---

Each entry below carries its recorded IC50.
Biological target: mouse 11β-HSD1 (Mus musculus, UniProt P50172)
Construct: 100 ug/ml human/mouse liver microsomes; from tissue; host or cells: mouse liver microsomes
Sequence (P50172 whole entry): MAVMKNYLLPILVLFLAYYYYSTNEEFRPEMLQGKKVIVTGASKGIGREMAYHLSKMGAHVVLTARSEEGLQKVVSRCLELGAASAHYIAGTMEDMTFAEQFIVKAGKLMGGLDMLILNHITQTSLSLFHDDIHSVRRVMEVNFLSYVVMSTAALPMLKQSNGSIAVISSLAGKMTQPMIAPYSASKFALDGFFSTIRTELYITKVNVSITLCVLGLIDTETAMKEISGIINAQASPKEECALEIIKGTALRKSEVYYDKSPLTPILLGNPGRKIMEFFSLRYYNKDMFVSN
Assay: Enzyme activity analysis on mouse 11β-HSD1 (HTRF cortisol, liver microsomes)
Assay type: biochemical
Settings: second value of cell
property_name: IC50 (µM)

{"compound": "NC(=O)C12CC3CC(C1)C(NC(=O)C1(NS(=O)(=O)c4ccc(Cl)cc4Cl)CCC1)C(C3)C2 (centres unmarked)", "recorded_result": 0.459}
{"compound": "NC(=O)C12CC3CC(C1)C(NC(=O)C1(NS(=O)(=O)c4ccccc4N)CCC1)C(C3)C2 (centres unmarked)", "recorded_result": 0.151}
{"compound": "Cc1c(Cl)cccc1S(=O)(=O)NC(C)(C)C(=O)NC1C2CC3CC(C2)CC1C3 (centres unmarked)", "recorded_result": 0.33}
{"compound": "Cc1ccccc1S(=O)(=O)N(C)C(C)(C)C(=O)NC1C2CC3CC1CC(C(N)=O)(C3)C2 (centres unmarked)", "recorded_result": 0.005}
{"compound": "NC(=O)C12CC3CC(C1)C(NC(=O)C1(NS(=O)(=O)c4cccc5cccnc45)CCCC1)C(C3)C2 (centres unmarked)", "recorded_result": 0.007}
{"compound": "CC(C)(NS(=O)(=O)c1cccc(Cl)c1F)C(=O)NC1C2CC3CC1CC(C(N)=O)(C3)C2 (centres unmarked)", "recorded_result": 0.037}
{"compound": "CCN(C(C)(C)C(=O)NC1C2CC3CC1CC(C(N)=O)(C3)C2)S(=O)(=O)c1ccccc1C (centres unmarked)", "recorded_result": 0.182}
{"compound": "NC(=O)C12CC3CC(C1)C(NC(=O)C1(NS(=O)(=O)c4cccc(Cl)c4Cl)CCC1)C(C3)C2 (centres unmarked)", "recorded_result": 0.058}

---

Each entry below carries its recorded IC50.
Target: human 11β-HSD1 (Homo sapiens, UniProt P28845)
Construct: 100 ug/ml human/mouse liver microsomes; from tissue; host or cells: human liver microsomes
Sequence (P28845 whole entry): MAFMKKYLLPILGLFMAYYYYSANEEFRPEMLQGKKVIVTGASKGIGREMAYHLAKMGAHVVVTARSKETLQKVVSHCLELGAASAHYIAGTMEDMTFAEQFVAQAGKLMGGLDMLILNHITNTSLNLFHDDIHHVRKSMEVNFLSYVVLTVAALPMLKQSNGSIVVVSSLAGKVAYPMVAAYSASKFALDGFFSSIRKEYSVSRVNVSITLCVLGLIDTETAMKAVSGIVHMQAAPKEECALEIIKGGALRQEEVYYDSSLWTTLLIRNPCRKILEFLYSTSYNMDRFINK
Test: Enzyme activity analysis on human 11β-HSD1 (HTRF cortisol, liver microsomes)
Format: biochemical
Details: first value of cell
Protocol: After culturing at 37° C. for 2 hours, 5 μl of cryptate-labeled anti-cortisol antibody and 5 μl of d2-labeled cortisol were added thereto. After further culturing at room temperature for 2 hours, a homogeneous time-resolved fluorescence (HTRF, Cisbio) signal was measured. From each analysis, based on a standard curve calculated using cortisols of several known concentrations, an amount of produced cortisol was tested. […]
property_name: IC50 (µM)

{"compound": "CC(C)(NS(=O)(=O)Cc1ccccc1)C(=O)NC1C2CC3CC(C2)CC1C3 (stereo not drawn)", "test_system": "human 11β-HSD1 (Homo sapiens, UniProt P28845)", "property_name": "IC50", "unit": "µM", "recorded_result": 0.039}
{"compound": "CC(C)(NS(=O)(=O)c1ccc(Cl)cc1[N+](=O)[O-])C(=O)NC1C2CC3CC1CC(O)(C3)C2 (stereo not drawn)", "test_system": "human 11β-HSD1 (Homo sapiens, UniProt P28845)", "property_name": "IC50", "unit": "µM", "recorded_result": 0.083}
{"compound": "NC(=O)C12CC3CC(C1)C(NC(=O)C1(NS(=O)(=O)c4c(Cl)cccc4Cl)CCCC1)C(C3)C2 (stereo not drawn)", "test_system": "human 11β-HSD1 (Homo sapiens, UniProt P28845)", "property_name": "IC50", "unit": "µM", "recorded_result": 0.006}
